The origin of these recorded values is paper PMC9979339.

Kindly supply the reported % DPPH scavenging mean ± SEM values for the records listed here.
test: DPPH free radical scavenging assay; assay type: biochemical; settings: 250 μM, n = 3
Answers are plain numbers, in %.

Consider the following illustrative entries.
> print(dat)
                                   compound  recordedvalue
1  O=C1O[C@H]([C@@H](O)CO)C(O)=C1O [ascorbic acid, reference compound]          65.19
2         Cc1ccc(N2C(=O)c3ccccc3C2=O)c(C)c1          55.85

Look up % DPPH scavenging mean ± SEM for the entries below, preserving their order.
1. O=C1c2ccccc2C(=O)N1c1ccc(C(F)(F)F)cc1
2. O=C1c2ccccc2C(=O)N1c1ccc(Br)cc1

-- reply
[67.85, 47.85]
